Every entry's value here was drawn from the supplement of paper PMC11316812.

# Tested on: hTERT-HMEC
# protocol-notes: percentage of EdU-negative (G0-arrested) nuclei per well, 72 h; higher = more G0 arrest;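 also: secreted proteins added to cultured cells, EdU pulse at the end, nuclei found by Hoechst imaging, EdU status from nuclear versus surrounding ring intensity ratio, PBS as neutral control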
# test-context: protein concentration 0.225 µM; reference: sequence is the full UniProt precursor, the tested protein was the secreted form or ectodomain
experimental-endpoint: percentage of EdU-negative (%)
Give the value in % but do not write % after it.

Solved cases below.
residue-string	experimental-value
MRLLQLLFRASPATLLLVLCLQLGANKAQDNTRKIIIKNFDIPKSVRPNDEVTAVLAVQTELKECMVVKTYLISSIPLQGAFNYKYTACLCDDNPKTFYWDFYTNRTVQIAAVVDVIRELGICPDDAAVIPIKNNRFYTIEILKVE	5.95
MKASSLAFSLLSAAFYLLWTPSTGLKTLNLGSCVIATNLQEIRNGFSEIRGSVQAKDGNIDIRILRRTESLQDTKPANRCCLLRHLLRLYLDRVFKNYQTPDHYTLRKISSLANSFLTIKKDLRLCHAHMTCHCGEEAMKKYSQILSHFEKLEPQAAVVKALGELDILLQWMEETE [Q9NYY1]	8.36
MAARRSQRRRGRRGEPGTALLVPLALGLGLALACLGLLLAVVSLGSRASLSAQEPAQEELVAEEDQDPSELNPQTEESQDPAPFLNRLVRPRRSAPKGRKTRARRAIAAHYEVHPRPGQDGAQAGVDGTVSGWEEARINSSSPLRYNRQIGEFIVTRAGLYYLYCQVHFDEGKAVYLKLDLLVDGVLALRCLEEFSATAASSLGPQLRLCQVSGLLALRPGSSLRIRTLPWAHLKAAPFLTYFGLFQVH	13.4
MRGTPGDADGGGRAVYQSMCKPITGTINDLNQQVWTLQGQNLVAVPRSDSVTPVTVAVITCKYPEALEQGRGDPIYLGIQNPEMCLYCEKVGEQPTLQLKEQKIMDLYGQPEPVKPFLFYRAKTGRTSTLESVAFPDWFIASSKRDQPIILTSELGKSYNTAFELNIND [Q9NZH8]	5.31
MWTLGRRAVAGLLASPSPAQAQTLTRVPRPAELAPLCGRRGLRTDIDATCTPRRASSNQRGLNQIWNVKKQSVYLMNLRKSGTLGHPGSLDETTYERLAEETLDSLAEFFEDLADKPYTFEDYDVSFGSGVLTVKLGGDLGTYVINKQTPNKQIWLSSPSSGPKRYDWTGKNWVYSHDGVSLHELLAAELTKALKTKLDLSSLAYSGKDA	9.96

Exercise: # percentage of EdU-negative lookup, item MAKSFPVFSLLSFILIHLVLSSVSGPRHWWPPRGIIKVKCPYEKVNLSWYNGTVNPCPGLYQPICGTNFITYDNPCILCVESLKSHGRIRFYHDGKC [Q6IE38]
Solution: 6.12

Exercise: Then what about the sequence `MTTQLRVVHLLPLLLACFVQTSPKQEKMKMDCHKDEKGTIYDYEAIALNKNEYVSFKQYVGKHILFVNVATYCGLTAQYPELNALQEELKPYGLVVLGFPCNQFGKQEPGDNKEILPGLKYVRPGGGFVPSFQLFEKGDVNGEKEQKVFSFLKHSCPHPSEILGTFKSISWDPVKVHDIRWNFEKFLVGPDGIPVMRWSHRATVSSVKTDILAYLKQFKTK` ?
Solution: 7.84

Exercise: Then what about the sequence `MNVLLGSVVIFATFVTLCNASCYFIPNEGVPGDSTRKCMDLKGNKHPINSEWQTDNCETCTCYETEISCCTLVSTPVGYDKDNCQRIFKKEDCKYIVVEKKDPKKTCSVSEWII` ?
Solution: 5.95

Exercise: Then what about the sequence `MVSRMVSTMLSGLLFWLASGWTPAFAYSPRTPDRVSEADIQRLLHGVMEQLGIARPRVEYPAHQAMNLVGPQSIEGGAHEGLQHLGPFGNIPNIVAELTGDNIPKDFSEDQGYPDPPNPCPVGKTADDGCLENTPDTAEFSREFQLHQHLFDPEHDYPGLGKWNKKLLYEKMKGGERRKRRSVNPYLQGQRLDNVVAKKSVPHFSDEDKDPE` ?
Solution: 5.28

Exercise: Then what about the sequence MAPARAGCCPLLLLLLGLWVAEVLVRAKPKDMTSSQWFKTQHVQPSPQACNSAMSIINKYTERCKDLNTFLHEPFSSVAITCQTPNIACKNSCKNCHQSHGPMSLTMGELTSGKYPNCRYKEKHLNTPYIVACDPPQQGDPGYPLVPVHLDKVV [Q8TDE3] ?
Solution: 5.09

----------
# key: entry, value: percentage of EdU-negative
# Test system: MCF7
# protocol-notes: percentage of EdU-negative (G0-arrested) nuclei per well, 72 h; higher = more G0 arrest
# test-context: protein concentration 0.0225 µM; reference: sequence is the full UniProt precursor, the tested protein was the secreted form or ectodomain
Give the value in % but do not write % after it.

Solved cases below.
residue-string	experimental-value
MSSENCFVAENSSLHPESGQENDATSPHFSTRHEGSFQVPVLCAVMNVVFITILIIALIALSVGQYNCPGQYTFSMPSDSHVSSCSEDWVGYQRKCYFISTVKRSWTSAQNACSEHGATLAVIDSEKDMNFLKRYAGREEHWVGLKKEPGHPWKWSNGKEFNNWFNVTGSDKCVFLKNTEVSSMECEKNLYWICNKPYK	23.5
MVPEEEPQDREKGLWWFQLKVWSMAVVSILLLSVCFTVSSVVPHNFMYSKTVKRLSKLREYQQYHPSLTCVMEGKDIEDWSCCPTPWTSFQSSCYFISTGMQSWTKSQKNCSVMGADLVVINTREEQDFIIQNLKRNSSYFLGLSDPGGRRHWQWVDQTPYNENVTFWHSGEPNNLDERCAIINFRSSEEWGWNDIHCHVPQKSICKMKKIYI [Q8WTT0]	27.7

Exercise: # get_value(readout= percentage of EdU-negative, system= MCF7) for `MIRTLLLSTLVAGALSCGVSTYAPDMSRMLGGEEARPNSWPWQVSLQYSSNGQWYHTCGGSLIANSWVLTAAHCISSSGIYRVMLGQHNLYVAESGSLAVSVSKIVVHKDWNSDQVSKGNDIALLKLANPVSLTDKIQLACLPPAGTILPNNYPCYVTGWGRLQTNGALPDDLKQGQLLVVDYATCSSSGWWGSTVKTNMICAGGDGVICTCNGDSGGPLNCQASDGRWEVHGIGSLTSVLGCNYYYKPSIFTRVSNYNDWINSVIANN`
Solution: 22.3

----------
# Tested on: MCF7
# protocol-notes: percentage of EdU-negative (G0-arrested) nuclei per well, 72 h; higher = more G0 arrest
# test-context: protein concentration 0.357143 µM; reference: sequence is the full UniProt precursor, the tested protein was the secreted form or ectodomain
experimental-endpoint: percentage of EdU-negative (%)
Give the value in % but do not write % after it.

residue-string	experimental-value
MELWGAYLLLCLFSLLTQVTTEPPTQKPKKIVNAKKDVVNTKMFEELKSRLDTLAQEVALLKEQQALQTVCLKGTKVHMKCFLAFTQTKTFHEASEDCISRGGTLGTPQTGSENDALYEYLRQSVGNEAEIWLGLNDMAAEGTWVDMTGARIAYKNWETEITAQPDGGKTENCAVLSGAANGKWFDKRCRDQLPYICQFGIV	26.7

Exercise: # percentage of EdU-negative lookup, item MAAAAATKILLCLPLLLLLSGWSRAGRADPHSLCYDITVIPKFRPGPRWCAVQGQVDEKTFLHYDCGNKTVTPVSPLGKKLNVTTAWKAQNPVLREVVDILTEQLRDIQLENYTPKEPLTLQARMSCEQKAEGHSSGSWQFSFDGQIFLLFDSEKRMWTTVHPGARKMKEKWENDKVVAMSFHYFSMGDCIGWLEDFLMGMDSTLEPSAGAPLAMSSGTTQLRATATTLILCCLLIILPCFILPGI [Q9BZM5]
Solution: 25.5

----------
# System: MCF7
# protocol-notes: percentage of EdU-negative (G0-arrested) nuclei per well, 72 h; higher = more G0 arrest
# test-context: protein concentration 0.225 µM; reference: sequence is the full UniProt precursor, the tested protein was the secreted form or ectodomain
experimental-endpoint: percentage of EdU-negative (%)
Give the value in % but do not write % after it.

Exercise: # get_value(readout= percentage of EdU-negative, system= MCF7) for `MDYPTLLLALLHVYRALCEEVLWHTSVPFAENMSLECVYPSMGILTQVEWFKIGTQQDSIAIFSPTHGMVIRKPYAERVYFLNSTMASNNMTLFFRNASEDDVGYYSCSLYTYPQGTWQKVIQVVQSDSFEAAVPSNSHIVSEPGKNVTLTCQPQMTWPVQAVRWEKIQPRQIDLLTYCNLVHGRNFTSKFPRQIVSNCSHGRWSVIVIPDVTVSDSGLYRCYLQASAGENETFVMRLTVAEGKTDNQYTLFVAGGTVLLLLFVISITTIIVIFLNRRRRRERRDLFTESWDTQKAPNNYRSPISTSQPTNQSMDDTREDIYVNYPTFSRRPKTRV`
Solution: 23.8

----------
# key: entry, value: percentage of EdU-negative
# System: MCF7
# protocol-notes: percentage of EdU-negative (G0-arrested) nuclei per well, 72 h; higher = more G0 arrest
# test-context: protein concentration 0.0225 µM; reference: sequence is the full UniProt precursor, the tested protein was the secreted form or ectodomain

residue-string	percentage of EdU-negative
MAAAAMAAAAGGGAGAARSLSRFRGCLAGALLGDCVGSFYEAHDTVDLTSVLRHVQSLEPDPGTPGSERTEALYYTDDTAMARALVQSLLAKEAFDEVDMAHRFAQEYKKDPDRGYGAGVVTVFKKLLNPKCRDVFEPARAQFNGKGSYGNGGAMRVAGISLAYSSVQDVQKFARLSAQLTHASSLGYNGAILQALAVHLALQGESSSEHFLKQLLGHMEDLEGDAQSVLDARELGMEERPYSSRLKKIGELLDQASVTREEVVSELGNGIAAFESVPTAIYCFLRCMEPDPEIPSAFNSLQRTLIYSISLGGDTDTIATMAGAIAGAYYGMDQVPESWQQSCEGYEETDILAQSLHRVFQKS [Q9NX46]	24.5%

// next item, percentage of EdU-negative requested
Exercise: # percentage of EdU-negative lookup, item MQAARGGAGRPERPGRPGRGPERERERPPGAGAASPCAAPGLPAGGATIHPGSPSAWPPRARAALRLWLGCVCFALVQADSPSAPVNVTVRHLKANSAVVSWDVLEDEVVIGFAISQQKKDVRMLRFIQEVNTTTRSCALWDLEEDTEYIVHVQAISIQGQSPASEPVLFKTPREAEKMASKNKDEVTMKEMGRNQQLRTGEVLIIVVVLFMWAGVIALFCRQYDIIKDNEPNNNKEKTKSASETSTPEHQGGGLLRSKI [Q8NAU1]
Solution: 27.1%
